Assay: Drug degradation after 48 hrs by HPLC analysis
Type: physicochemical
Conditions: read-out: Drug degradation
value type: degraded at 48 h

The measured degraded at 48 h associated with O=c1c(O)c(-c2ccc(O)cc2)oc2cc(O)cc(O)c12 [KAEMPFEROL] reads > 80%

###

Experiment: Drug level treated with kaempferol after 4 hrs by LC/Q Tof-MS/MS analysis
Format: physicochemical
value type: Drug metabolism

As a guide, the following entries are already answered.
| compound | value type | obs value |
| --- | --- | --- |
| O=C(O)c1c(O)cc(O)cc1O | Drug metabolism | metabolite_detected |
| O=C1Oc2cc(O)cc(O)c2C1=O | Drug metabolism | metabolite_detected |
| O=c1c(OOc2c(-c3ccc(O)cc3)oc3cc(O)cc(O)c3c2=O)c(-c2ccc(O)cc2)oc2cc(O)cc(O)c12 | Drug metabolism | metabolite_detected |
| O=Cc1c(O)cc(O)cc1O [PHLOROGLUCINALDEHYDE] | Drug metabolism | metabolite_detected |
| O=C(O)C(=O)c1c(O)cc(O)cc1O | Drug metabolism | metabolite_detected |
| O=C(O)c1ccc(O)cc1 [PARABEN] | Drug metabolism | metabolite_detected |
| O=C(O)C(=O)c1ccc(O)cc1 | Drug metabolism | metabolite_detected |
| O=c1cc(-c2ccc(O)cc2)oc2cc(O)cc(O)c12 [APIGENIN] | Drug metabolism | metabolite_detected |

Next:
The measured Drug metabolism associated with O=C1C(=O)C(O)(c2ccc(O)cc2)Oc2cc(O)cc(O)c21 (centres undefined) reads metabolite_detected

###

Experiment: Drug degradation assessed as autoxidation at 500 uM at 4 degC after 1 hr by UV-visible spectrophotometric analysis in presence of wild type Amyloid beta (1 to 42) (unknown origin) relative to morin and datiscetin
Assay type: physicochemical
Conditions: read-out: Drug degradation
value type: degraded at 1 h, 500 µM (%)
Field format: number, assumed %, no unit text.

The measured degraded at 1 h, 500 µM associated with O=c1c(O)c(-c2ccc(O)cc2)oc2cc(O)cc(O)c12 [KAEMPFEROL] reads 70

###

Biological target: Amyloid-beta precursor protein (Homo sapiens)
Test: Inhibition of nucleation phase of HFIP-treated 15N-labelled wild type Amyloid beta (1 to 42) (unknown origin) assessed as time required for nucleation at 50 uM by Thioflavin-T fluorescence assay in presence of fibril seed
Reported TIME values are given for each entry in this list.
Field format: number, assumed h, no unit text.

As a guide, the following entries are already answered.
| compound | TIME / h |
| --- | --- |
| O=C1C(=O)C(O)(c2ccc(O)cc2)Oc2cc(O)cc(O)c21 (configuration not stated) | 3 |
| O=c1cc(-c2ccc(O)cc2)oc2cc(O)cc(O)c12 | 3 |
| O=c1c(OOc2c(-c3ccc(O)cc3)oc3cc(O)cc(O)c3c2=O)c(-c2ccc(O)cc2)oc2cc(O)cc(O)c12 | 3 |
| O=Cc1c(O)cc(O)cc1O | 3 |
| O=c1c(O)c(-c2ccc(O)cc2O)oc2cc(O)cc(O)c12 | 10 |
| O=C(O)C(=O)c1ccc(O)cc1 | 3 |
| O=C(O)c1ccc(O)cc1 | 3 |
| O=C(O)c1c(O)cc(O)cc1O | 3 |
| O=C(O)C(=O)c1c(O)cc(O)cc1O | 3 |
| O=c1c(O)c(-c2ccc(O)cc2)oc2cc(O)cc(O)c12 | 3 |

The measured TIME associated with O=C1Oc2cc(O)cc(O)c2C1=O reads 3

The measured TIME associated with O=c1c(O)c(-c2ccccc2O)oc2cc(O)cc(O)c12 reads 6
